These entries and their values trace back to BigSolDB 2.1.

# measurement.parameters: in ethanol, 293.15 K
recorded.metric: solubility (mole fraction)

Form: compound = "CC(C)(C)c1ccc(-c2nnc(-c3ccc(-c4ccccc4)cc3)o2)cc1" ; solubility (mole fraction) = 0.000963

====

# measurement.parameters: in NMP, 293.15 K
recorded.metric: solubility (mole fraction)

Form: compound = "CC(C)(C)c1ccc(-c2nnc(-c3ccc(-c4ccccc4)cc3)o2)cc1" ; solubility (mole fraction) = 0.0662

====

# measurement.parameters: in chlorobenzene, 313.15 K
recorded.metric: solubility (mole fraction)

Form: compound = "CC(C)(C)c1ccc(-c2nnc(-c3ccc(-c4ccccc4)cc3)o2)cc1" ; solubility (mole fraction) = 0.0952

====

# measurement.parameters: in ethyl acetate, 283.15 K
recorded.metric: solubility (mole fraction)
Number only, no unit.

Form: compound = "CC(C)(C)c1ccc(-c2nnc(-c3ccc(-c4ccccc4)cc3)o2)cc1" ; solubility (mole fraction) = 0.0114

====

# measurement.parameters: in methanol, 303.15 K
recorded.metric: solubility (mole fraction)
Number only, no unit.

Form: compound = "CC(C)(C)c1ccc(-c2nnc(-c3ccc(-c4ccccc4)cc3)o2)cc1" ; solubility (mole fraction) = 0.00105

====

# measurement.parameters: in isopropanol, 313.15 K
recorded.metric: solubility (mole fraction)
Number only, no unit.

Form: compound = "CC(C)(C)c1ccc(-c2nnc(-c3ccc(-c4ccccc4)cc3)o2)cc1" ; solubility (mole fraction) = 0.00274

====

# measurement.parameters: in isopropanol, 293.15 K
recorded.metric: solubility (mole fraction)
Number only, no unit.

Form: molecule = "CC(C)(C)c1ccc(-c2nnc(-c3ccc(-c4ccccc4)cc3)o2)cc1" ; solubility (mole fraction) = 0.0012

====

# measurement.parameters: in acetonitrile, 283.15 K
recorded.metric: solubility (mole fraction)
Number only, no unit.

Form: molecule = "CC(C)(C)c1ccc(-c2nnc(-c3ccc(-c4ccccc4)cc3)o2)cc1" ; solubility (mole fraction) = 0.00143

====

# measurement.parameters: in DMSO, 303.15 K
recorded.metric: solubility (mole fraction)
Number only, no unit.

Form: compound = "CC(C)(C)c1ccc(-c2nnc(-c3ccc(-c4ccccc4)cc3)o2)cc1" ; solubility (mole fraction) = 0.00603

====

# measurement.parameters: in THF, 313.15 K
recorded.metric: solubility (mole fraction)
Number only, no unit.

Form: molecule = "CC(C)(C)c1ccc(-c2nnc(-c3ccc(-c4ccccc4)cc3)o2)cc1" ; solubility (mole fraction) = 0.0725

====

# measurement.parameters: in ethyl acetate, 303.15 K
recorded.metric: solubility (mole fraction)
Number only, no unit.

Form: compound = "CC(C)(C)c1ccc(-c2nnc(-c3ccc(-c4ccccc4)cc3)o2)cc1" ; solubility (mole fraction) = 0.0223

====

# measurement.parameters: in DMSO, 293.15 K
recorded.metric: solubility (mole fraction)

Form: compound = "CC(C)(C)c1ccc(-c2nnc(-c3ccc(-c4ccccc4)cc3)o2)cc1" ; solubility (mole fraction) = 0.00363

====

# measurement.parameters: in methanol, 313.15 K
recorded.metric: solubility (mole fraction)
Number only, no unit.

Form: molecule = "CC(C)(C)c1ccc(-c2nnc(-c3ccc(-c4ccccc4)cc3)o2)cc1" ; solubility (mole fraction) = 0.00185

====

# measurement.parameters: in ethanol, 313.15 K
recorded.metric: solubility (mole fraction)
Number only, no unit.

Form: compound = "CC(C)(C)c1ccc(-c2nnc(-c3ccc(-c4ccccc4)cc3)o2)cc1" ; solubility (mole fraction) = 0.00222

====

# measurement.parameters: in isopropanol, 283.15 K
recorded.metric: solubility (mole fraction)

Form: compound = "CC(C)(C)c1ccc(-c2nnc(-c3ccc(-c4ccccc4)cc3)o2)cc1" ; solubility (mole fraction) = 0.000711

====

# measurement.parameters: in THF, 303.15 K
recorded.metric: solubility (mole fraction)
Number only, no unit.

Form: compound = "CC(C)(C)c1ccc(-c2nnc(-c3ccc(-c4ccccc4)cc3)o2)cc1" ; solubility (mole fraction) = 0.065

====

# measurement.parameters: in ethyl acetate, 293.15 K
recorded.metric: solubility (mole fraction)
Number only, no unit.

Form: molecule = "CC(C)(C)c1ccc(-c2nnc(-c3ccc(-c4ccccc4)cc3)o2)cc1" ; solubility (mole fraction) = 0.0153

====

# measurement.parameters: in chlorobenzene, 323.15 K
recorded.metric: solubility (mole fraction)
Number only, no unit.

Form: compound = "CC(C)(C)c1ccc(-c2nnc(-c3ccc(-c4ccccc4)cc3)o2)cc1" ; solubility (mole fraction) = 0.112

====

# measurement.parameters: in n-hexane, 313.15 K
recorded.metric: solubility (mole fraction)
Number only, no unit.

Form: molecule = "CC(C)(C)c1ccc(-c2nnc(-c3ccc(-c4ccccc4)cc3)o2)cc1" ; solubility (mole fraction) = 0.00164

====

# measurement.parameters: in dichloromethane, 303.15 K
recorded.metric: solubility (mole fraction)
Number only, no unit.

Form: compound = "CC(C)(C)c1ccc(-c2nnc(-c3ccc(-c4ccccc4)cc3)o2)cc1" ; solubility (mole fraction) = 0.112

====

# measurement.parameters: in toluene, 313.15 K
recorded.metric: solubility (mole fraction)
Number only, no unit.

Form: compound = "CC(C)(C)c1ccc(-c2nnc(-c3ccc(-c4ccccc4)cc3)o2)cc1" ; solubility (mole fraction) = 0.0834

====

# measurement.parameters: in acetonitrile, 293.15 K
recorded.metric: solubility (mole fraction)
Number only, no unit.

Form: compound = "CC(C)(C)c1ccc(-c2nnc(-c3ccc(-c4ccccc4)cc3)o2)cc1" ; solubility (mole fraction) = 0.00234

====

# measurement.parameters: in dichloromethane, 293.15 K
recorded.metric: solubility (mole fraction)
Number only, no unit.

Form: molecule = "CC(C)(C)c1ccc(-c2nnc(-c3ccc(-c4ccccc4)cc3)o2)cc1" ; solubility (mole fraction) = 0.104

====

# measurement.parameters: in n-hexane, 293.15 K
recorded.metric: solubility (mole fraction)
Number only, no unit.

Form: molecule = "CC(C)(C)c1ccc(-c2nnc(-c3ccc(-c4ccccc4)cc3)o2)cc1" ; solubility (mole fraction) = 0.000596

====

# measurement.parameters: in NMP, 323.15 K
recorded.metric: solubility (mole fraction)
Number only, no unit.

Form: molecule = "CC(C)(C)c1ccc(-c2nnc(-c3ccc(-c4ccccc4)cc3)o2)cc1" ; solubility (mole fraction) = 0.115

====

# measurement.parameters: in DMSO, 323.15 K
recorded.metric: solubility (mole fraction)

Form: compound = "CC(C)(C)c1ccc(-c2nnc(-c3ccc(-c4ccccc4)cc3)o2)cc1" ; solubility (mole fraction) = 0.0133

====

# measurement.parameters: in chlorobenzene, 293.15 K
recorded.metric: solubility (mole fraction)
Number only, no unit.

Form: compound = "CC(C)(C)c1ccc(-c2nnc(-c3ccc(-c4ccccc4)cc3)o2)cc1" ; solubility (mole fraction) = 0.0709

====

# measurement.parameters: in toluene, 323.15 K
recorded.metric: solubility (mole fraction)
Number only, no unit.

Form: compound = "CC(C)(C)c1ccc(-c2nnc(-c3ccc(-c4ccccc4)cc3)o2)cc1" ; solubility (mole fraction) = 0.109

====

# measurement.parameters: in n-hexane, 283.15 K
recorded.metric: solubility (mole fraction)

Form: compound = "CC(C)(C)c1ccc(-c2nnc(-c3ccc(-c4ccccc4)cc3)o2)cc1" ; solubility (mole fraction) = 0.000411

====

# measurement.parameters: in methanol, 293.15 K
recorded.metric: solubility (mole fraction)
Number only, no unit.

Form: molecule = "CC(C)(C)c1ccc(-c2nnc(-c3ccc(-c4ccccc4)cc3)o2)cc1" ; solubility (mole fraction) = 0.000703

====

# measurement.parameters: in n-hexane, 323.15 K
recorded.metric: solubility (mole fraction)
Number only, no unit.

Form: molecule = "CC(C)(C)c1ccc(-c2nnc(-c3ccc(-c4ccccc4)cc3)o2)cc1" ; solubility (mole fraction) = 0.00235

====

# measurement.parameters: in ethyl acetate, 323.15 K
recorded.metric: solubility (mole fraction)
Number only, no unit.

Form: compound = "CC(C)(C)c1ccc(-c2nnc(-c3ccc(-c4ccccc4)cc3)o2)cc1" ; solubility (mole fraction) = 0.0392

====

# measurement.parameters: in chlorobenzene, 283.15 K
recorded.metric: solubility (mole fraction)
Number only, no unit.

Form: compound = "CC(C)(C)c1ccc(-c2nnc(-c3ccc(-c4ccccc4)cc3)o2)cc1" ; solubility (mole fraction) = 0.0587

====

# measurement.parameters: in toluene, 283.15 K
recorded.metric: solubility (mole fraction)
Number only, no unit.

Form: compound = "CC(C)(C)c1ccc(-c2nnc(-c3ccc(-c4ccccc4)cc3)o2)cc1" ; solubility (mole fraction) = 0.0303

====

# measurement.parameters: in THF, 283.15 K
recorded.metric: solubility (mole fraction)
Number only, no unit.

Form: molecule = "CC(C)(C)c1ccc(-c2nnc(-c3ccc(-c4ccccc4)cc3)o2)cc1" ; solubility (mole fraction) = 0.0524

====

# measurement.parameters: in NMP, 283.15 K
recorded.metric: solubility (mole fraction)
Number only, no unit.

Form: compound = "CC(C)(C)c1ccc(-c2nnc(-c3ccc(-c4ccccc4)cc3)o2)cc1" ; solubility (mole fraction) = 0.0542
